# Target: HDAC3/NCoR2 (Homo sapiens, UniProt O15379)
# Construct: HDAC3/NCoR2 (full length, C-terminal His tag, NCoR2 N-terminal GST tag); purchased BPS Bioscience 50003
# Sequence (O15379 whole entry): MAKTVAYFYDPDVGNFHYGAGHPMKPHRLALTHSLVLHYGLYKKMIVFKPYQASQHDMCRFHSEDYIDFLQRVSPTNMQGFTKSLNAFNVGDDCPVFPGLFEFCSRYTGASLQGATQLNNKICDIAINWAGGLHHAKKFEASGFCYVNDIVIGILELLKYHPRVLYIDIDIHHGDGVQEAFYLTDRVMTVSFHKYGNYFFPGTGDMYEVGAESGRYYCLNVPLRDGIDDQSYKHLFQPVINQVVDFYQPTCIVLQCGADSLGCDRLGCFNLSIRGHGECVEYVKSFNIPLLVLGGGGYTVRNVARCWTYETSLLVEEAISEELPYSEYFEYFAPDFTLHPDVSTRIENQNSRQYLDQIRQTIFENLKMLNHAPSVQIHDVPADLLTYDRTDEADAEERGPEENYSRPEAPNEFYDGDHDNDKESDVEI
# Sequence (Q9Y618 389-480 partner limits assumed): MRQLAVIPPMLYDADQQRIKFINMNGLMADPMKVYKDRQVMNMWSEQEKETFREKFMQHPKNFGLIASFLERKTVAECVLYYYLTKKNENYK
# Procedure Details: Recombinant HDAC µSPOT microarray binding assay;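 also: peptide spots on cellulose slides incubated with rising HDAC enzyme concentrations, imaged together, four-parameter logistic fit, EC50 is enzyme concentration giving half-maximal binding signal, two experiments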
# Test Parameters: HDAC3 µSPOT microarray, Fig. 3; Hill slope of dose-response fit; X = Asuha
Outcome Measure: HillSlope

Before answering, review these 6 worked examples.
H2A 19-34 (SRAGLQFPVGRVHRLL; UniProt P04908 20-35, looked up, fragment) : 1.37
H2A 55-70 (LEYLTAEILELAGNAA; UniProt P0C0S8 56-71, looked up, fragment) : 1.26
H2A 40-55 (AERVGAGAPVYLAAVL; UniProt P0C0S8 41-56, looked up, fragment) : 1.44
H2B 58-73 (AMGIMNSFVNDIFERI; UniProt P06899 59-74, looked up, fragment) : 1.96
H2A 49-64 (VYLAAVLEYLTAEILE; UniProt P0C0S8 50-65, looked up, fragment) : 1.38
H2B 61-76 (IMNSFVNDIFERIAGE; UniProt P62807 62-77, looked up, fragment) : 1.99

(P) H2B 91-106 (SREIQTAVRLLLPGEL; UniProt P62807 92-107, looked up, fragment)
(Q) H2A 16-31 (TRSSRAGLQFPVGRVH; microarray-immobilized; UniProt P0C0S8 17-32, looked up, fragment)
Query string: For the two items P and Q , which reports the higher HillSlope value? # reply format: chosen label
Result string: P

###

Entries and their remaining activity at 5 µM
# Target: HDAC4 (Homo sapiens, UniProt P56524)
# Construct: purchased BPS Bioscience 50004
# Sequence (P56524 627-1084): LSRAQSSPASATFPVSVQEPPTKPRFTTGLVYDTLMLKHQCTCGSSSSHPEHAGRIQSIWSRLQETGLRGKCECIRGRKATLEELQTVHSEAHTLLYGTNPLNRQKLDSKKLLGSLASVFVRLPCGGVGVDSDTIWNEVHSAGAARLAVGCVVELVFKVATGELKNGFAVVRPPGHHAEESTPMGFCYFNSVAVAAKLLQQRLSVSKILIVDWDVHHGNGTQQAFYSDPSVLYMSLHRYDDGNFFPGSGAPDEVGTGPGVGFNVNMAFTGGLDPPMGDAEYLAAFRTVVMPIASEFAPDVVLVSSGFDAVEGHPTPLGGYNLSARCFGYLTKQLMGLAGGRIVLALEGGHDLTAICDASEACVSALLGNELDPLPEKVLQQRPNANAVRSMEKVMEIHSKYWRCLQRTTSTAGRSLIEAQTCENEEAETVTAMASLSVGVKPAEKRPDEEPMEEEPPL
# Procedure Details: HDAC inhibition assay (fluorogenic, Ac-Leu-Gly-Lys(Tfa)-AMC)
# Type: biochemical
# Test Parameters: inhibitor 5 µM, 2 internal replicates, read-out: residual enzymatic activity relative to control wells
Non-standard residues stand in square brackets, D forms with d. Residues, ends and D or L forms follow the SMILES beside them. *: point of attachment. Asu = N[C@@H](CCCCCC(=O)O)C(=O)O; NHOH = ON*
The answer is to be given in %; state only the numeric part.

Before answering, review these 4 worked examples.
CC(=O)N[C@@H](C)C(=O)N[C@H](C(=O)NCC(=O)NCC(=O)N[C@H](C(=O)N[C@@H](CCCCCC(=O)NO)C(=O)N[C@@H](CCCCN)C(=O)N1CCC[C@H]1C(=O)N[C@@H](Cc1c[nH]cn1)C(=O)N[C@@H](CCCNC(=N)N)C(=O)N[C@@H](Cc1ccc(O)cc1)C(=O)N[C@@H](CCCNC(=N)N)C(=O)N1CCC[C@H]1C(=O)NCC(=O)N[C@H](C(=O)N[C@H](C(=O)N[C@@H](Cc1c[nH]c2ccccc12)C(N)=O)C(C)C)[C@@H](C)O)C(C)C)[C@@H](C)O [15a] (Ac-ATGGV[Asu](NHOH)KPHRYRPGTVW-NH2) : 98.7
CC(=O)N[C@@H](CC(C)C)C(=O)NCC(=O)N[C@@H](CCCCN)C(=O)NCC(=O)NCC(=O)N[C@@H](C)C(=O)N[C@@H](CCCCCC(=O)NO)C(=O)N[C@@H](CCCNC(=N)N)C(=O)N[C@@H](Cc1c[nH]cn1)C(=O)N[C@@H](CCCNC(=N)N)C(=O)N[C@@H](CCCCN)C(=O)N[C@H](C(=O)N[C@@H](CC(C)C)C(=O)N[C@@H](CCCNC(=N)N)C(=O)N[C@@H](CC(=O)O)C(=O)N[C@@H](CC(N)=O)C(=O)N[C@@H](Cc1c[nH]c2ccccc12)C(N)=O)C(C)C [16a] (Ac-LGKGGA[Asu](NHOH)RHRKVLRDNW-NH2) : 93.6
CC(=O)N1CCC[C@H]1C(=O)N[C@@H](CCCNC(=N)N)C(=O)N[C@@H](CCCCN)C(=O)N[C@@H](CCC(N)=O)C(=O)N[C@@H](CC(C)C)C(=O)N[C@@H](C)C(=O)N[C@H](C(=O)N[C@@H](CCCCN)C(=O)N[C@@H](C)C(=O)N[C@@H](C)C(=O)N[C@@H](CCCNC(=N)N)C(=O)N[C@@H](CCCCCC(=O)NO)C(=O)N[C@@H](CO)C(=O)N[C@@H](C)C(=O)N1CCC[C@H]1C(=O)N[C@@H](C)C(=O)N[C@@H](Cc1c[nH]c2ccccc12)C(N)=O)[C@@H](C)O [14a] (Ac-PRKQLATKAAR[Asu](NHOH)SAPAW-NH2) : 91.8
CC(=O)NCC(=O)NCC(=O)N[C@@H](CCCCCC(=O)NO)C(=O)N[C@@H](C)C(=O)N[C@@H](CCCNC(=N)N)C(=O)N[C@@H](C)C(=O)N[C@@H](CCCCN)C(=O)N[C@@H](C)C(=O)N[C@@H](CCCCN)C(=O)N[C@H](C(=O)N[C@@H](CCCNC(=N)N)C(=O)N[C@@H](CO)C(=O)N[C@@H](CO)C(=O)N[C@@H](CCCNC(=N)N)C(=O)N[C@@H](C)C(=O)NCC(=O)N[C@@H](Cc1c[nH]c2ccccc12)C(N)=O)[C@@H](C)O [9a] (Ac-GG[Asu](NHOH)ARAKAKTRSSRAGW-NH2) : 97.8

Please look at the following molecule next.
Query string: Quick one: remaining activity at 5 µM for CC(=O)N[C@@H](C)C(=O)N1CCC[C@H]1C(=O)N[C@@H](C)C(=O)N1CCC[C@H]1C(=O)N[C@@H](CCCCN)C(=O)N[C@@H](CCCCCC(=O)NO)C(=O)NCC(=O)N[C@@H](CO)C(=O)N[C@@H](CCCCN)C(=O)N[C@@H](CCCCN)C(=O)N[C@@H](C)C(=O)N[C@H](C(=O)N[C@H](C(=O)N[C@@H](CCCCN)C(=O)N[C@@H](C)C(=O)N[C@@H](CCC(N)=O)C(=O)N[C@@H](Cc1c[nH]c2ccccc12)C(N)=O)[C@@H](C)O)C(C)C [10a] (Ac-APAPK[Asu](NHOH)GSKKAVTKAQW-NH2) ?
Result string: 100
